# GI50 annotations
System: MDA-MB-231
Experiment: NCI tumour cell line growth inhibition, 48 h
Calls of active or inactive are those of the source. Rule as the data show it: active = GI50 up to about 1.1 µM and inactive = higher.
MEASURED_METRIC: GI50

>>> print(df.to_string())
                                   compound  measured_metric           assay_value
0  CC1=C(C(=O)NNC(=O)C[N+](C)(C)C)CC(C(=O)NNC(=O)C[N+](C)(C)C)=C(C)N1             GI50   > 100 µM (inactive)
1              On1c(-c2ccccc2)nc2ccccc2c1=S             GI50    70.3 µM (inactive)
2  CC[C@@H](/C=C\CCC1(C[C@@H](N)CCC=C(C)C)OCCO1)O[Si](C(C)C)(C(C)C)C(C)C             GI50      19 µM (inactive)
3  O=C(O)CC(C(=O)O)C1c2ccccc2-c2ccccc21 (centres undefined)             GI50   > 100 µM (inactive)
4  O=C1c2ccccc2C(=O)c2nn(N=P(CP(=Nn3nc4c(n3)C(=O)c3ccccc3C4=O)(c3ccccc3)c3ccccc3)(c3ccccc3)c3ccccc3)nc21             GI50   > 100 µM (inactive)
5  COC(=O)C1CCC(=O)N1C(c1ccc(OC)cc1)c1cc(OC)c(OC)c(OC)c1 (centres undefined)             GI50    3.24 µM (inactive)
6  NC(Cc1ccc2oc3cc(=O)c4ccccc4c-3nc2c1)C(=O)O (centres undefined)             GI50  > 79.6 µM (inactive)
7  COc1cc2c(cc1OC)C13CCN4CC5CCOC6CC(=O)N2C1C6C5CC43 (centres undefined)             GI50   > 100 µM (inactive)
8  CCCCCCCCCC[C@@H](O)[C@@H]1CC[C@@H]([C@@H]2CC[C@@H]([C@@H](O)CCCCCCCCCCC(O)CC3=CC(C)OC3=O)O2)O1 (some centres undefined)             GI50    2.32 µM (inactive)

* * *

# GI50 annotations
System: SF-268
Experiment: NCI tumour cell line growth inhibition, 48 h
Active and inactive are the calls of the source. Rule as the data show it: active = GI50 up to about 1.1 µM and inactive = higher.
MEASURED_METRIC: GI50

In [3]: df
Out[3]:
                                   molecule  test_target  measured_metric          assay_value
0  CCN(CC)c1ccc2c(c1)OC(=O)C(c1nnc(-c3ccc([N+](=O)[O-])cc3)o1)C2 (stereo not drawn)       SF-268             GI50   90.4 µM (inactive)
1  CCC(C)n1c(C)nc2c1C(=O)c1ccccc1C2=O (stereo not drawn)       SF-268             GI50   30.8 µM (inactive)
2  Cc1cc(C)nc(NS(=O)(=O)c2ccc(NC(=O)c3cccc4c(NNc5ccc(S(=O)(=O)N=C(N)N)cc5)c5ccccc5nc34)cc2)n1       SF-268             GI50   > 50 µM (inactive)
3                 N/C(=N/c1ccc(O)cc1)S(=O)O       SF-268             GI50  > 100 µM (inactive)
4  Cc1c(C)c(S(=O)(=O)N(CCCCN)OCCCN)c(C)c2c1OC(C)(C)CC2       SF-268             GI50   15.4 µM (inactive)
5  Cc1ccc(C2CC(c3ccc([N+](=O)[O-])cc3)=Nc3ccccc3S2)cc1 (stereo not drawn)       SF-268             GI50   24.4 µM (inactive)
6  CCCCCC(O)(CCCCC)CCCCCCCCC1=C(O)C(=O)c2ccccc2C1=O       SF-268             GI50   6.95 µM (inactive)
7  c1cc(NNc2cccc(-c3nnn[nH]3)c2)cc(-c2nnn[nH]2)c1       SF-268             GI50  > 100 µM (inactive)
